Test description: qHTS for differential inhibitors of proliferation of Plasmodium falciparum line HB3 (AID 1886);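 further: parasites grown with compound for 72 h before SYBR Green readout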
Condition: Plasmodium falciparum HB3 proliferation inhibition; series mostly up to 28.7 µM
Records with an inconclusive call do not appear. The source made the active and inactive calls. The call rests on the fitted dose curve; in most records, active means well fitted curve in the direction sought with a large enough effect; inconclusive means small, poorly fitted or top-dose-only effect, or another doubt; inactive means no such curve, though single readings can be large or run the other way.
Pick one and only one: active, inactive

>>> discrete_label("COc1ccc(-n2nc(C(F)(F)F)cc2-c2ccc(Cl)cc2)cc1")
"active"
>>> discrete_label("C=CCN1CCC2(C)c3cc(O)ccc3CC1C2C (stereo not drawn)")
"inactive"

Recorded test outcome, item N[C@H](CCCCCP(=O)(O)O)C(=O)O
inactive

----------
Test description: qHTS drug screen for cell cycle checkpoint inhibitors in PARPi-resistant BRCA-mutant ovarian cancer cell lines. (AID 1963452)
Condition: PEO1/OlaR viability, CellTiter-Glo luminescence, 96 h; hits give low values
The source made the active and inactive calls. The call rests on the fitted dose curve.
Hi there, I'd appreciate the recorded Z-AUC for every entry that follows.

Worked cases, answers included:
>>> result("COc1cc(C(=O)N2CC[C@@H](O)[C@@H](N)C2)cc2nc(-c3cc4ccccc4n3CC3CC3)n(C)c12")
"0.124 (inactive)"
>>> result("Cc1sc2c(c1C)C(c1ccc(Cl)cc1)=N[C@@H](CC(=O)Nc1ccc(O)cc1)c1nnc(C)n1-2")
"-0.583 (inactive)"
>>> result("NC(=O)[C@@H](CC1CC1)[C@@H](CCC(F)(F)F)C(=O)N[C@H]1N=C(c2ccccc2)c2cccc(F)c2NC1=O")
"-1.08 (inactive)"
>>> result("Cc1ncc(OC[C@@]2(c3cccc(F)c3)C[C@H]2C(=O)Nc2ccc(F)cn2)c(C)n1")
"-0.208 (inactive)"

Can you give me Z-AUC for all of these, one by one?
1. CC(=O)N1N=C(c2ccc(N)cc2)c2cc3c(cc2C[C@H]1C)OCO3
2. COc1cc2c(cc1F)C(c1ccccc1Cl)=Nc1c(n[nH]c1C)N2
3. C[C@@H]1CN(Cc2ccc(F)cc2)CCN1C(=O)COc1ccc(Cl)cc1NC(N)=O
4. C[C@H]1CCC/C=C/C2C[C@H](O)C[C@H]2[C@H](O)/C=C/C(=O)O1 (some centres undefined)
5. O=C(NCCCNc1nc(Nc2ccc(N3CCOCC3)cc2)ncc1C1CC1)C1CCC1

["0.45 (inactive)", "-0.71 (inactive)", "-0.0879 (inactive)", "-0.883 (inactive)", "0.0288 (inactive)"]
